Origin of values: the supplement of paper PMC11316812

Tested on: hTERT-HMEC
test_name: percentage of EdU-negative (G0-arrested) nuclei per well, 72 h; higher = more G0 arrest;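 further: secreted proteins added to cultured cells, EdU pulse at the end, nuclei found by Hoechst imaging, EdU status from nuclear versus surrounding ring intensity ratio, PBS as neutral control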
test_context: protein concentration 0.0225 µM; reference: sequence is the full UniProt precursor, the tested protein was the secreted form or ectodomain
measurement_label: percentage of EdU-negative
Units required after the number.

Endpoint output: percentage of EdU-negative of MVRMVPVLLSLLLLLGPAVPQENQDGRYSLTYIYTGLSKHVEDVPAFQALGSLNDLQFFRYNSKDRKSQPMGLWRQVEGMEDWKQDSQLQKAREDIFMETLKDIVEYYNDSNGSHVLQGRFGCEIENNRSSGAFWKYYYDGKDYIEFNKEIPAWVPFDPAAQITKQKWEAEPVYVQRAKAYLEEECPATLRKYLKYSKNILDRQDPPSVVVTSHQAPGEKKKLKCLAYDFYPGKIDVHWTRAGEVQEPELRGDVLHNGNGTYQSWVVVAVPPQDTAPYSCHVQHSSLAQPLVVPWEAS . Value? 5.49%

Endpoint output: percentage of EdU-negative of MVAGSDAGRALGVLSVVCLLHCFGFISCFSQQIYGVVYGNVTFHVPSNVPLKEVLWKKQKDKVAELENSEFRAFSSFKNRVYLDTVSGSLTIYNLTSSDEDEYEMESPNITDTMKFFLYVLESLPSPTLTCALTNGSIEVQCMIPEHYNSHRGLIMYSWDCPMEQCKRNSTSIYFKMENDLPQKIQCTLSNPLFNTTSSIILTTCIPSSGHSRHRYALIPIPLAVITTCIVLYMNGILKCDRKPDRTNSN . Value? 5.39%

* * *

Give percentage of EdU-negative for every item shown.
Test system: MCF7
test_name: percentage of EdU-negative (G0-arrested) nuclei per well, 72 h; higher = more G0 arrest
test_context: protein concentration 0.225 µM; reference: sequence is the full UniProt precursor, the tested protein was the secreted form or ectodomain
Report the figure in % without appending any unit label.

Endpoint output: percentage of EdU-negative of MIFLLLMLSLELQLHQIAALFTVTVPKELYIIEHGSNVTLECNFDTGSHVNLGAITASLQKVENDTSPHRERATLLEEQLPLGKASFHIPQVQVRDEGQYQCIIIYGVAWDYKYLTLKVKASYRKINTHILKVPETDEVELTCQATGYPLAEVSWPNVSVPANTSHSRTPEGLYQVTSVLRLKPPPGRNFSCVFWNTHVRELTLASIDLQSQMEPRTHPTWLLHIFIPFCIIAFIFIATVIALRKQLCQKLYSSKDTTKRPVTTTKREVNSAI [Q9BQ51] . Value? 24.6

Endpoint output: percentage of EdU-negative of MAAQGCAASRLLQLLLQLLLLLLLLAAGGARARWRGEGTSAHLRDIFLGRCAEYRALLSPEQRNKNCTAIWEAFKVALDKDPCSVLPSDYDLFINLSRHSIPRDKSLFWENSHLLVNSFADNTRRFMPLSDVLYGRVADFLSWCRQKNDSGLDYQSCPTSEDCENNPVDSFWKRASIQYSKDSSGVIHVMLNGSEPTGAYPIKGFFADYEIPNLQKEKITRIEIWVMHEIGGPNVESCGEGSMKVLEKRLKDMGFQYSCINDYRPVKLLQCVDHSTHPDCALKSAAAATQRKAPSLYTEQRAGLIIPLFLVLASRTQL . Value? 23.5

Endpoint output: percentage of EdU-negative of MSEEVTYADLQFQNSSEMEKIPEIGKFGEKAPPAPSHVWRPAALFLTLLCLLLLIGLGVLASMFHVTLKIEMKKMNKLQNISEELQRNISLQLMSNMNISNKIRNLSTTLQTIATKLCRELYSKEQEHKCKPCPRRWIWHKDSCYFLSDDVQTWQESKMACAAQNASLLKINNKNALEFIKSQSRSYDYWLGLSPEEDSTRGMRVDNIINSSAWVIRNAPDLNNMYCGYINRLYVQYYHCTYKKRMICEKMANPVQLGSTYFREA [Q5QGZ9] . Value? 28.9
